System: OVCAR-4 ovarian
Test: NCI-60 one-dose screen, 48 h
Conditions: 10 µM
Compounds without any hit were thinned out: in the full panel of roughly 83,000, 20% have a hit. The source made the active and inactive calls. The calls were made as follows: active = growth percent below 10; inactive = the rest.
Possible outcomes: active, inactive

{"compound": "COc1ccc(Nc2ncnc3c2c(SC)nn3-c2ccccc2)cc1", "label.class": "inactive"}
{"compound": "O=C(N/N=C\\c1cc(Cl)ccc1[N+](=O)[O-])c1ccco1", "label.class": "inactive"}
{"compound": "COc1cc(-c2cc(-c3cc4c([nH]c5ccccc54)c(-c4cc(OC)c(OC)c(OC)c4)n3)cc(-c3ccccc3)n2)cc(OC)c1OC", "label.class": "inactive"}
{"compound": "N#CCCN(NC(=O)OCc1ccccc1)C(=O)OCc1ccccc1", "label.class": "inactive"}
{"compound": "O=C(N/N=C/c1cc2ccccc2c2ccccc12)c1cc(O)c(O)c(O)c1", "label.class": "inactive"}
{"compound": "CCN(CC)CCC(CNc1c(C)cnc2cc(Cl)ccc12)c1ccc(Cl)c(Cl)c1 (stereo not given)", "label.class": "inactive"}
{"compound": "CCOC(=O)C(=Cc1ccc(Br)cc1)C(=O)OCC", "label.class": "active"}
{"compound": "Cc1cs/c(=N\\NC(=O)c2cc(-c3cc4ccccc4o3)nn2-c2ccccc2)n1-c1ccccc1", "label.class": "inactive"}
{"compound": "O=C(/C(=C/c1ccccc1)CN1CCCCC1)c1ccccc1", "label.class": "inactive"}
{"compound": "Clc1ccccc1N=Cc1ccc2c(c1)OCO2", "label.class": "inactive"}

====

System: IGROV1 ovarian
Assay: NCI-60 one-dose screen, 48 h
Settings: 10 µM
The panel holds about 83,000 compounds, 20% with a hit somewhere; the sample as a whole holds those more often. Active and inactive are the calls of the source. Rule for the calls: active = growth percent below 10; inactive = the rest.
Possible outcomes: 1 (yes) (active), 0 (no) (inactive)

{"compound": "COc1ccc(OC)c(/C=C/c2nc(SC)n(-c3ccc(Cl)cc3)n2)c1", "label.class": "0 (no)"}
{"compound": "O=C1/C(=C\\c2cn(C(=O)c3ccc(Cl)cc3)c3ccccc23)c2ccccc2N1C(=O)c1ccc(Cl)cc1", "label.class": "0 (no)"}
{"compound": "Cc1cc(Cl)nc(N(CCCNc2ccnc3cc(Cl)ccc23)Cc2cccs2)n1", "label.class": "1 (yes)"}
{"compound": "CCCCCCCCN(CCCCCCCC)CCCCCCCCCN1CCCc2cc(OC)ccc21", "label.class": "0 (no)"}
{"compound": "CN(C)C(=S)N/N=C\\C=N/NC(=S)N(C)C", "label.class": "1 (yes)"}
{"compound": "COc1cccc(C(=O)Nc2ccc(CN3CCc4nc5cc(OC)c(OC)cc5cc43)cc2)c1", "label.class": "0 (no)"}
{"compound": "Nc1nc(Nc2ccccc2)n[nH]1", "label.class": "0 (no)"}
{"compound": "O=c1[nH]c(-c2ccc(Cl)cc2)nc2sc3c(c12)CCCC3", "label.class": "0 (no)"}
{"compound": "N#CCCN1C/C(=C/c2ccccc2)C(=O)/C(=C/c2ccccc2)C1", "label.class": "0 (no)"}
{"compound": "CCN(CC)CCCC(C)Nc1ccc2ccc(Cl)cc2n1 (stereo not drawn)", "label.class": "0 (no)"}
{"compound": "CC(=O)N1N=C(c2ccc(Cl)cc2)CC1c1sc(Cl)nc1Cl (stereo not drawn)", "label.class": "0 (no)"}
{"compound": "c1ccc(CO[C@H]2CO[C@H]3[C@@H]2OC[C@H]3OCc2ccccc2)cc1", "label.class": "0 (no)"}
{"compound": "c1ccc2c(c1)oc1c3cccnc3ccc21", "label.class": "0 (no)"}
{"compound": "CCOC(=O)c1ccoc1", "label.class": "0 (no)"}
{"compound": "COc1cc(-c2nc(Nc3nc4ccccc4s3)[nH]c(=O)c2C#N)cc(OC)c1O", "label.class": "0 (no)"}
{"compound": "N#Cc1ncc(Br)c(NC2CCCCCC2)n1", "label.class": "0 (no)"}
{"compound": "CSC1=NCCCC1", "label.class": "0 (no)"}
{"compound": "Cc1ccc(NC(=O)Nc2nc3ccccc3s2)cc1NC(=O)Nc1nc2ccccc2s1", "label.class": "0 (no)"}
{"compound": "O=C1/C(=C\\c2ccc(F)cc2)CN(C(=O)c2ccccc2F)C/C1=C\\c1ccc(F)cc1", "label.class": "1 (yes)"}
{"compound": "N=c1nc(N)ncn1-c1ccccc1", "label.class": "0 (no)"}
{"compound": "FC(F)(F)c1ccc(-c2cnc(-n3cc(COCCN4CCCCC4)nn3)nc2NC2CCCCCC2)cc1", "label.class": "0 (no)"}
{"compound": "COc1ccc2c(c1)[n+]([O-])c(C#N)c(NC(=O)c1ccco1)[n+]2[O-]", "label.class": "0 (no)"}
{"compound": "O=C1C(c2ccccc2)C2C=CC(C2)N1O (stereo not drawn)", "label.class": "0 (no)"}
{"compound": "Cc1cc2ccccc2nc1-c1ccccc1F", "label.class": "0 (no)"}
{"compound": "CC/C(=C(/c1ccc(OCCN(C)C)cc1)c1ccc(OC(=O)CCCCCCCCC(=O)c2c(C)[nH]c(/C=C3\\N=C(c4ccc[nH]4)C=C3OC)c2C)cc1)c1ccccc1", "label.class": "0 (no)"}
{"compound": "O=C1OCC2=C1C(c1cccc(Cl)c1)c1cc3c(cc1N2CCO)CCC3 (stereo not drawn)", "label.class": "0 (no)"}
{"compound": "COc1cc(Cl)cc(-c2nn(-c3cccc(NC(=O)Nc4cc(C(F)(F)F)cc(C(F)(F)F)c4)c3)cc2-c2ccncc2)c1", "label.class": "0 (no)"}
{"compound": "CC(=O)c1nc2ccccc2n1CCNC(N)=O", "label.class": "0 (no)"}
{"compound": "COc1ccc(/C=C2/CN(C(=O)c3ccccc3F)C/C(=C\\c3ccc(OC)cc3)C2=O)cc1", "label.class": "0 (no)"}
{"compound": "CSc1nn(-c2ccccc2)c2ncnc(Oc3ccc(C)cc3)c12", "label.class": "0 (no)"}
{"compound": "O=[N+]([O-])c1ccc(N/N=C/c2cccc3ccccc23)nc1", "label.class": "0 (no)"}
{"compound": "COc1cc(-c2nn3c(/C=C4/C(=O)Nc5ccccc54)c(-c4ccc(C)cc4)nc3s2)cc(OC)c1OC", "label.class": "0 (no)"}
{"compound": "COc1ccc(-c2nn(-c3cccc(NC(=O)Nc4cccc(C(F)(F)F)c4)c3)cc2-c2ccncc2)cc1Cl", "label.class": "0 (no)"}
{"compound": "CCOC(=O)N1C/C(=C/c2ccc(Cl)cc2)C(=O)/C(=C/c2ccc(Cl)cc2)C1", "label.class": "0 (no)"}
{"compound": "CCOC1(OCC)OC(c2ccccc2)=C(C#N)C(/C=C\\c2ccccc2)C1(OCC)OCC (stereo not drawn)", "label.class": "0 (no)"}
{"compound": "Cc1ccc(S(=O)(=O)Oc2ccc3c4c(c(=O)oc3c2)CCCCC4)cc1", "label.class": "0 (no)"}
{"compound": "CCc1ccc2c(c1)N(CCO)C1=C(C(=O)OC1)C2c1ccccc1 (stereo not drawn)", "label.class": "0 (no)"}
{"compound": "COc1cc2c(cc1OC)N(CCO)C1=C(C(=O)OC1)C2c1ccc(Cl)c(Cl)c1 (stereo not drawn)", "label.class": "0 (no)"}
{"compound": "N=C(N)c1ccc(-c2ccc(-c3cccs3)o2)cc1", "label.class": "0 (no)"}
{"compound": "CC/C(C)=C(\\C)C(=O)O", "label.class": "0 (no)"}
{"compound": "COc1cc(/C=C/C(=O)c2ccc(Cl)cc2)ccc1OS(=O)(=O)c1ccc(C)cc1", "label.class": "0 (no)"}
{"compound": "CC(=O)[C@H]1CC[C@H]2[C@@H]3CCC4=CC(=O)C=C[C@]4(C)[C@H]3CC[C@]12C", "label.class": "0 (no)"}
{"compound": "COc1cc(NC(=O)CSc2nc3ccccc3c(=O)n2CCc2ccccc2)cc(OC)c1OC", "label.class": "1 (yes)"}

====

Tested on: NCI-H23 lung
Assay: NCI-60 one-dose screen, 48 h (100 = growth as untreated, 0 = no growth, -100 = all killed)
Conditions: 10 µM
Compounds without any hit were thinned out: in the full panel of roughly 83,000, 20% have a hit.

{"compound": "COc1ccc2c(c1)-c1c(c3cc(OC)ccc3n(CCN(C)C)c1=O)C2=O", "unit.abbrev": "%", "growth": 7.11}
{"compound": "COc1ccc(-c2nc3sc(-c4ccc(OC)cc4)c(-c4ccc(OC)cc4)n3c2/C=C/c2ccc(C(C)C)cc2)cc1", "unit.abbrev": "%", "growth": 95.6}
{"compound": "COc1ccc(Cl)cc1C(=O)Nc1nc2ccc(Cl)cc2s1", "unit.abbrev": "%", "growth": 90.5}
{"compound": "c1ccc(CP(Cc2ccccc2)c2ccccc2)cc1", "unit.abbrev": "%", "growth": 97.9}
{"compound": "CC/C(=C(/c1ccc(OCCN(C)C)cc1)c1ccc(OC(=O)CCCCCCCCC(=O)c2c(C)[nH]c(/C=C3\\N=C(c4ccc[nH]4)C=C3OC)c2C)cc1)c1ccccc1", "unit.abbrev": "%", "growth": 88}
{"compound": "Cc1cc(Cc2cc(C)c(O)c(C)c2)cc(C)c1O", "unit.abbrev": "%", "growth": 74.1}
{"compound": "Cc1ccc2oc3nc(C)c(C(=O)NCc4ccccc4)cc3c(=O)c2c1", "unit.abbrev": "%", "growth": 83.8}
{"compound": "COc1ccc(-n2c(SCc3cc(OC)c(OC)c(OC)c3)nc3ccc(C)cc3c2=O)cc1", "unit.abbrev": "%", "growth": 69.2}
{"compound": "COc1ccc2c(c1)N(CCO)C1=C(C(=O)OC1)C2c1ccc(OC)c(OC)c1 (centres undefined)", "unit.abbrev": "%", "growth": 46.1}
